Provide the recorded activation (% of control) for the entries that follow.
assay: STAT1 signaling activators, primary screen, cell-based, HTS, luciferase reporter (AID 932); settings: NIH 3T3 STAT1-luciferase reporter, IFN-gamma, luminescence; at 5.5 µM; hits give high values; 100% = IFN-gamma alone, no compound;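 note: raw ratio to IFN-gamma control signal so 100% means no change and 0% no light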
Among all 200,000 compounds or so, about 5,100 (2.5%) were called active. Only a selection was taken, and actives are over-represented in it overall.
One number for each entry, in %.

See these solved cases before continuing.
So for CCc1cc2c(=O)c(-c3nc4ccccc4n3C)c(CCCC(=O)O)oc2cc1OC(=O)C(C)(C)C , the logged activation (% of control) turned out to be 90.5

So for COc1ccc(C(=O)NC2CCN(C(=S)Nc3ccccc3)CC2)cc1 , the logged activation (% of control) turned out to be 88.7

So for COc1ccc(C(=O)Nc2nncs2)c(OC)c1 , the logged activation (% of control) turned out to be 131

So for CC(=O)c1cc(C#N)c(N2CCCCC2)nc1C , the logged activation (% of control) turned out to be 95.1

Respectfully, I request activation (% of control) for each entry included below.
1. Cc1ccc(COc2ccc(C(=O)NN)cc2)cc1
2. COC(=O)c1sc(NC(=O)c2ccc(OC)cc2OC)nc1C
3. CCOC(=O)C1(CCOC)CCN(Cc2ccc(C(=O)OC)cc2)CC1
4. C/C(=C/C(=O)N1CCN(C)CC1)C(=O)O
5. CC(=O)c1cc(C#N)c(SCC(=O)Nc2nccs2)nc1C
6. CC(=O)c1cc(C#N)c(SCC(=O)C(C)(C)C)nc1C
7. COc1cc(SC)ccc1C(=O)Nc1nc(C)cs1
8. c1ccc2[nH]c(-c3nc4ccccc4[nH]3)nc2c1

RESULT:
1. 116
2. 75.1
3. 106
4. 88.6
5. 108
6. 140
7. 12.9
8. 146
